This section presents compounds with their documented Selectivity HCT 116-WT/ HCT116 MTAP KO values.
Tested on: HCT116 MTAP KO cells
EXPERIMENTAL PROTOCOL: Inhibitory activity against cell proliferation (CellTiter Glo, 6 days), HCT116 MTAP KO
Assay type: cell-based
TEST PARAMETERS: ratio of IC50 HCT116-WT / HCT116 MTAP KO
I only need the number, thanks.

Task: Give its Selectivity HCT 116-WT/ HCT116 MTAP KO value. Item: CN(c1ccccc1)N(Cc1ccc(C(F)(F)F)cn1)C(=O)c1ccc2nc(N)c3cnn(C)c3c2c1 [Example 52]
Result: 32.08

Task: // lookup Selectivity HCT 116-WT/ HCT116 MTAP KO for [2H]C([2H])([2H])c1cc2cc(C(=O)N(Cc3ccc(C(F)(F)F)cn3)Nc3ncccn3)ccc2nc1N [Example 312]
Result: 32.33

Task: Selectivity HCT 116-WT/ HCT116 MTAP KO lookup needed for CN(c1ncccn1)N(Cc1ccc(C(F)(F)F)cn1)C(=O)c1ccc2nc(N)c3ccncc3c2c1 [Example 78] , thanks.
Result: 12.07

Task: Entry under review: Cc1cc2nc(N)c3cnn(C)c3c2cc1C(=O)N1CCCN1c1ncc(-c2cccnc2)cc1F [Example 473] . Reported Selectivity HCT 116-WT/ HCT116 MTAP KO?
Result: 56.09

Task: Fill blank: measured Selectivity HCT 116-WT/ HCT116 MTAP KO of the compound Cc1cc2nc(N)c3cnn(C)c3c2cc1C(=O)N1CCCN1c1ncc(C2=CCN(C)CC2)cc1F [Example 470] is ____.
Result: 32.33

Task: Record request: Selectivity HCT 116-WT/ HCT116 MTAP KO value, item Cc1cc2nc(N)c3cnn(C)c3c2cc1C(=O)N1CCCN1c1ncc(-c2cnn(C(F)(F)F)c2)cc1F [Example 480]
Result: 32.16

Task: # get_value(readout='Selectivity HCT 116-WT/ HCT116 MTAP KO', item= Cc1cc2nc(N)c3cnn(C)c3c2cc1C(=O)N1CC(C)CN1c1ccccc1 (stereo not shown) [Example 396] )
Result: 16.21
